# Test Target: human CB1 receptor (hCB1) (Homo sapiens, UniProt P21554)
# Construct: host or cells: Chinese Hamster Ovary (CHO) cells
# Sequence (P21554 whole entry): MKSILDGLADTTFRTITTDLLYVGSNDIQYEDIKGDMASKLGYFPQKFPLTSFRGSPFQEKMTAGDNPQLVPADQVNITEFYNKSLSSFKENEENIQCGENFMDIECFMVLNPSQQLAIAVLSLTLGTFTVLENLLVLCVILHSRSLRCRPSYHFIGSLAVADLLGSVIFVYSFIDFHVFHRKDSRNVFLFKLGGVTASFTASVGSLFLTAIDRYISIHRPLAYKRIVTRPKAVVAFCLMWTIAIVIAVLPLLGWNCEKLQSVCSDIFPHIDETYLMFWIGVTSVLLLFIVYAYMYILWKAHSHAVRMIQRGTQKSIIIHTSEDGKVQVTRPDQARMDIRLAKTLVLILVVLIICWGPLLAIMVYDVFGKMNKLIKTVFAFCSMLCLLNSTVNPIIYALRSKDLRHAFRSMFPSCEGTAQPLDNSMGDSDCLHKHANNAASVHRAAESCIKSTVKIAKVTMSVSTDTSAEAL
# Method Summary: cAMP accumulation assay (Lance TR-FRET) in CHO-hCB1 cells
# Assay type: cell-based
# Conditions: CHO cells stably expressing hCB1; forskolin-stimulated; mean ± SEM; read-out: hCB1 cAMP EC50
pEC50: −log10 of the molar value.
Endpoint Label: pEC50

[[record]]
smiles_record = "N#Cc1ccccc1Oc1cccc(NS(=O)(=O)Cc2ccccc2)c1"
recorded_result = 6.79

[[record]]
smiles_record = "O=S(=O)(Cc1ccccc1)Nc1cccc(Oc2cccc(C(F)(F)F)c2Cl)c1"
recorded_result = 6.59

[[record]]
smiles_record = "N#Cc1c(Oc2cccc(NS(=O)(=O)CCCC(F)(F)F)c2)cccc1C(F)(F)F"
recorded_result = 6.72

[[record]]
smiles_record = "O=S(=O)(CCCC(F)(F)F)Nc1cccc(Oc2cccc(C(F)(F)F)c2Cl)c1"
recorded_result = 6.76

[[record]]
smiles_record = "N#Cc1c(Oc2cccc(NC(=O)Cc3ccccc3)c2)cccc1C(F)(F)F"
recorded_result = 6.32

[[record]]
smiles_record = "CCCCCS(=O)(=O)Nc1cccc(Oc2cccc(C(F)(F)F)c2C#N)c1"
recorded_result = 6.61

[[record]]
smiles_record = "N#Cc1ccccc1Oc1cccc(NS(=O)(=O)CCCC(F)(F)F)c1"
recorded_result = 6.97

[[record]]
smiles_record = "N#Cc1c(Oc2ccc(NC(=O)Cc3ccccc3)cc2)cccc1C(F)(F)F"
recorded_result = 6.44

[[record]]
smiles_record = "N#Cc1c(Oc2cccc(NS(=O)(=O)Cc3ccccc3)c2)cccc1C(F)(F)F"
recorded_result = 6.64


###

# Emax per record follows
# Test Target: human CB1 receptor (hCB1) (Homo sapiens, UniProt P21554)
# Construct: host or cells: Chinese Hamster Ovary (CHO) cells
# Method Summary: cAMP accumulation assay (Lance TR-FRET) in CHO-hCB1 cells
# Type: cell-based
# Conditions: read-out: hCB1 cAMP Efficacy, % of the maximum CP55940 (full agonist) signal; mean ± SEM
Endpoint Label: Emax (%)

[[record]]
smiles_record = "N#Cc1c(Oc2cccc(NS(=O)(=O)CCCC(F)(F)F)c2)cccc1C(F)(F)F"
test_target = "human CB1 receptor (hCB1) (Homo sapiens, UniProt P21554)"
endpoint_label = "Emax"
bound_sign = "="
recorded_result = 96

[[record]]
smiles_record = "N#Cc1c(Oc2cccc(NS(=O)(=O)Cc3ccccc3)c2)cccc1C(F)(F)F"
test_target = "human CB1 receptor (hCB1) (Homo sapiens, UniProt P21554)"
endpoint_label = "Emax"
bound_sign = "="
recorded_result = 102

[[record]]
smiles_record = "N#Cc1c(Oc2cccc(NC(=O)Cc3ccccc3)c2)cccc1C(F)(F)F"
test_target = "human CB1 receptor (hCB1) (Homo sapiens, UniProt P21554)"
endpoint_label = "Emax"
bound_sign = "<"
recorded_result = 20

[[record]]
smiles_record = "N#Cc1c(Oc2cccc(NS(=O)(=O)NC3CCCCC3)c2)cccc1C(F)(F)F"
test_target = "human CB1 receptor (hCB1) (Homo sapiens, UniProt P21554)"
endpoint_label = "Emax"
bound_sign = "="
recorded_result = 27

[[record]]
smiles_record = "N#Cc1c(Oc2ccc(NC(=O)Cc3ccccc3)cc2)cccc1C(F)(F)F"
test_target = "human CB1 receptor (hCB1) (Homo sapiens, UniProt P21554)"
endpoint_label = "Emax"
bound_sign = "="
recorded_result = 36

[[record]]
smiles_record = "O=S(=O)(CCCC(F)(F)F)Nc1cccc(Oc2cccc(C(F)(F)F)c2Cl)c1"
test_target = "human CB1 receptor (hCB1) (Homo sapiens, UniProt P21554)"
endpoint_label = "Emax"
bound_sign = "="
recorded_result = 95

[[record]]
smiles_record = "N#Cc1ccccc1Oc1cccc(NS(=O)(=O)Cc2ccccc2)c1"
test_target = "human CB1 receptor (hCB1) (Homo sapiens, UniProt P21554)"
endpoint_label = "Emax"
bound_sign = "="
recorded_result = 82

[[record]]
smiles_record = "N#Cc1ccccc1Oc1cccc(NS(=O)(=O)CCCC(F)(F)F)c1"
test_target = "human CB1 receptor (hCB1) (Homo sapiens, UniProt P21554)"
endpoint_label = "Emax"
bound_sign = "="
recorded_result = 95

[[record]]
smiles_record = "N#Cc1c(Oc2cccc(NS(=O)(=O)Cc3ccc(Cl)cc3)c2)cccc1C(F)(F)F"
test_target = "human CB1 receptor (hCB1) (Homo sapiens, UniProt P21554)"
endpoint_label = "Emax"
bound_sign = "="
recorded_result = 95

[[record]]
smiles_record = "O=S(=O)(Cc1ccccc1)Nc1cccc(Oc2cccc(C(F)(F)F)c2Cl)c1"
test_target = "human CB1 receptor (hCB1) (Homo sapiens, UniProt P21554)"
endpoint_label = "Emax"
bound_sign = "="
recorded_result = 78

[[record]]
smiles_record = "CCCCCS(=O)(=O)Nc1cccc(Oc2cccc(C(F)(F)F)c2C#N)c1"
test_target = "human CB1 receptor (hCB1) (Homo sapiens, UniProt P21554)"
endpoint_label = "Emax"
bound_sign = "="
recorded_result = 76

